Catalogue of compounds with associated pIC50
Biological target: SARS-CoV-2 MPRO (Severe acute respiratory syndrome coronavirus 2 (2019-nCoV) (SARS-CoV-2), UniProt P0DTD1)
Test: SARS-CoV-2 Mpro enzymatic assay (FRET substrate cleavage)
Format: biochemical
Conditions: C-His6-tagged SARS-CoV-2 MPRO 25 nM, 30 min pre-incubation at RT, 60 min at 30° C., 10 doses from 25 μM; read-out: M pro IC50
pIC50: −log10 of the molar value.

Completed entries (count: 3):
- compound: "C[C@](C(=O)NC1CCC(F)(F)CC1)(c1cncnc1)N(C(=O)[C@H](F)Cl)c1ccc(OC(F)(F)C(F)(F)F)cc1 [Example 90a]"
  result: "> 7.00"
- compound: "C[C@@](C(=O)NC1CCOC1)(c1cncnc1)N(C(=O)[C@H](F)Cl)c1ccc(OC(F)(F)F)cc1 (single isomer, unassigned) [Example 6c]"
  result: "5.00 to 6.00"
- compound: "C[C@@](C(=O)NC1CCC(F)(F)CC1)(c1cncnc1)N(C(=O)[C@H](F)Cl)c1ccc(C2(C(F)(F)F)CC2)cc1 [Example 28b]"
  result: "< 5.00"

// sample C[C@](C(=O)NC1CCOC1)(c1cncnc1)N(C(=O)[C@H](F)Cl)c1ccc(OC(F)(F)F)cc1 (single isomer, unassigned) [Example 6a] , its pIC50 was > 7.00
